CC50 for assorted molecules
- System: human pulp cells (HPC)
- assayNotes: in vitro

molecule	CC50
Cl.Cl.O.O.O.O=C1C(=Cc2ccc([N+](=O)[O-])cc2)CN(C(=O)c2ccc(OCCN3CCCCC3)cc2)CC1=Cc1ccc([N+](=O)[O-])cc1.O=C1C(=Cc2ccc([N+](=O)[O-])cc2)CN(C(=O)c2ccc(OCCN3CCCCC3)cc2)CC1=Cc1ccc([N+](=O)[O-])cc1 [Compound 5c, hydrate]	3.9 µM
Cc1ccc(C=C2CN(C(=O)c3ccc(OCCN4CCCCC4)cc3)CC(=Cc3ccc(C)cc3)C2=O)cc1.Cc1ccc(C=C2CN(C(=O)c3ccc(OCCN4CCCCC4)cc3)CC(=Cc3ccc(C)cc3)C2=O)cc1.Cl.Cl.O [Compound 5d, hydrochloride hemihydrate]	15 µM
CC[N+](C)(CC)CCOc1ccc(C(=O)N2CC(=Cc3ccc(C)cc3)C(=O)C(=Cc3ccc(C)cc3)C2)cc1.[I-] [Compound 7d]	29 µM
O=C1C(=Cc2ccccc2)CNCC1=Cc1ccccc1 [Compound 1a]	38 µM

Exercise: For CC[N+](C)(CC)CCOc1ccc(C(=O)N2CC(=Cc3ccc([N+](=O)[O-])cc3)C(=O)C(=Cc3ccc([N+](=O)[O-])cc3)C2)cc1.[I-] [Compound 7c] , what is its reported CC50?
Key: 130 µM

Exercise: Which CC50 reading was recorded for the molecule CC[N+](C)(CC)CCOc1ccc(C(=O)N2CC(=Cc3ccccc3)C(=O)C(=Cc3ccccc3)C2)cc1.[I-] [Compound 7a] ?
Key: 170 µM
